experiment: Cytotoxic activity against MDCK cells assessed as cytopathogenic effect incubated for 48 hrs; format: cell-based, Canis lupus familiaris; details: dog, read-out: TC50
For each record, write down the corresponding CC50 at 48 h.
Give a bare numeral; the unit µM is implied.

Query string: Which measured CC50 at 48 h value corresponds to "O=C1C=C[C@H](O)[C@@H]2[C@H]3CCCN4CCC[C@@H](CN12)[C@@H]34" ?
Result string: 479

Query string: Another: "O=c1cccc2n1C[C@@H]1CCCN3CCC[C@H]2[C@H]13"
Result string: 273

====

test: Selectivity index, ratio of TC50 for African green monkey Vero cells to IC50 for coxsackievirus B3 infected in African green monkey Vero cells; assay type: toxicity, cell-based; conditions: read-out: Selectivity Index
Reported Endpoint: selectivity ratio
// return just the number, without any unit appended

Query string: Which measured selectivity ratio value corresponds to "O=C1[C@@H](O)CC[C@@H]2[C@H]3CCCN4CCC[C@@H](CN12)[C@@H]34" ?
Result string: 4.1

Query string: Another: O=C1C=C[C@@H](O)[C@@H]2[C@H]3CCC[N+]4([O-])CCC[C@@H](CN12)[C@@H]34 (stereo not given in full)
Result string: 4.3

Query string: Another: "NC(=O)c1ncn([C@@H]2O[C@H](CO)[C@@H](O)[C@H]2O)n1"
Result string: 6.8
